ASSAY_METHOD_TEXT: Amount of fragrance ingredients retained on paper blotter after evaporation (ethanol extraction, GC-MS)
Type: physicochemical
COND: Table 6; fragrance TAK in EdT1; 240 min; 32°C
PROPERTY: amount of fragrance ingredient retained on blotter (percentage of the initial amount) (%)

Please review the entries below; each comes with its answer.
| COMPOUND | RESULT_NUMBER |
| --- | --- |
| CC/C=C\CCOC(=O)c1ccccc1O [Cis 3-hexenyl salicylate, Cis-3-hexenyl salicylate] | 80 |
| CCCCCCOC(C)=O [Hexyl acetate, Hexyl Acetate] | 1 |
| C=CC(C)(CCC=C(C)C)OC(C)=O (centres unmarked) [Linalyl acetate] | 2 |

a = O=C1CCCCCCCCCCCC(=O)OCCO1 [Ethylene Brassylate]
b = CC(C=O)Cc1ccc(C(C)(C)C)cc1 (centres unmarked)
Of a and b , whose reported amount of fragrance ingredient retained on blotter (percentage of the initial amount) is the larger number? // output: label of the selected item a
(a: 98%, b: 65%)

---

ASSAY_METHOD_TEXT: Amount of fragrance ingredients retained on paper blotter after evaporation (ethanol extraction, GC-MS)
Type: physicochemical
COND: Table 3; fragrance TAK in C1; 120 min; 32°C
PROPERTY: amount of fragrance ingredient retained on blotter (percentage of the initial amount) (%)

Please review the entries below; each comes with its answer.
| COMPOUND | RESULT_NUMBER |
| --- | --- |
| CCCCCCOC(C)=O [Hexyl acetate, Hexyl Acetate] | 2 |
| CC(C=O)Cc1ccc(C(C)(C)C)cc1 (centres unmarked) | 75 |
| O=C1CCCCCCCCCCCC(=O)OCCO1 [Ethylene Brassylate] | 81 |

A = C=C(C)[C@H]1CC=C(C)CC1
B = CC/C=C\CCOC(=O)c1ccccc1O [Cis 3-hexenyl salicylate, Cis-3-hexenyl salicylate]
C = C=CC(C)(O)CCC=C(C)C (centres unmarked)
Provide the items ranked by increasing amount of fragrance ingredient retained on blotter (percentage of the initial amount). List the labels according to the requested ordering. A, C, B
(A: 1%, C: 35%, B: 75%)

---

ASSAY_METHOD_TEXT: Amount of fragrance ingredients retained on paper blotter after evaporation (ethanol extraction, GC-MS)
Format: physicochemical
COND: Table 5; fragrance TAK in EdT1 or C3; T0, set at 100% (normalisation)
PROPERTY: amount of fragrance ingredient retained on blotter (percentage of the initial amount) (%)

| COMPOUND | RESULT_NUMBER |
| --- | --- |
| CC(=O)OC1CCCCC1C(C)(C)C (stereo not drawn) [Verdox™, (2-tert-butylcyclohexyl) acetate] | 100 |
| C=CC(C)(O)CCC=C(C)C (stereo not drawn) | 100 |
| C=C(C)[C@H]1CC=C(C)CC1 | 100 |

---

ASSAY_METHOD_TEXT: Amount of fragrance ingredients retained on paper blotter after evaporation (ethanol extraction, GC-MS)
Type: physicochemical
COND: Table 9; fragrance COM1 in EdT2; T0 + 15 min
PROPERTY: amount of fragrance ingredient retained on blotter (percentage of the initial amount) (%)

I = CC(=O)OC1CCCCC1C(C)(C)C (centres unmarked) [Verdox™, (2-tert-butylcyclohexyl) acetate]
II = C=C(C)[C@H]1CC=C(C)CC1
Hello, I am sorting some records. Could you say if I or II has the smaller amount of fragrance ingredient retained on blotter (percentage of the initial amount) value? // output: label of the selected item II
(II: 1.33%, I: 61.7%)

The measurements presented in this section are drawn from patent EP3375430A1.
